Test system: T47D
METHOD DESCRIPTION: NCI tumour cell line growth inhibition, 48 h
Activity calls are given as the source filed them. No stated cut-off is given here; in the data, active = GI50 up to about 1.1 µM and inactive = higher.
Overview of recorded GI50 for various compounds

Please give the documented GI50 of CO[C@]12C[C@H](CNC(=O)c3ccc[nH]3)O[C@H]1NC(=O)N2 > 100 µM (inactive)

Please give the documented GI50 of CCc1nc(N)nc(N)c1-c1ccc(Cl)c(N=[N+]=[N-])c1 28.5 µM (inactive)

Please give the documented GI50 of Cc1c2c(n(Cc3ccccn3)c1C)NN=C(C#N)S2(=O)=O > 100 µM (inactive)

Please give the documented GI50 of COC(=O)C1CC2(CCC1=O)Cc1ccccc1C2=O (stereo unspecified) > 100 µM (inactive)

Please give the documented GI50 of COc1nc2c(c(=O)n1C)N[C@@H]1[C@@H](O)[C@H](O)CO[C@@H]1N2 > 100 µM (inactive)

Please give the documented GI50 of O=C(O)CSc1ccccc1C(=O)O > 100 µM (inactive)

---

System: CAKI-1
METHOD DESCRIPTION: NCI tumour cell line growth inhibition, 48 h
Activity calls are given as the source filed them. No stated cut-off is given here; in the data, active = GI50 up to about 1.1 µM and inactive = higher. Square brackets hold non-standard residues; d marks the D form. Peptide text beside a SMILES is read from it. * marks the point of attachment. X26 = COC1=CC(=O)N(C(=O)[C@@H](O*)C(C)C)[C@H]1Cc1ccccc1; Bn2Val = CC(C)[C@@H](C(=O)*)N(Cc1ccccc1)Cc1ccccc1; NMeV = CN[C@H](C(=O)O)C(C)C; dNMeA = CN[C@H](C)C(=O)O
Overview of recorded GI50 for various molecules

Recorded GI50, per entry:
C=C1C(=O)OC2C=C(CCC(C)=O)C(C)C(OC(C)=O)CC12 (stereo not given)    8.83 µM (inactive)
COC1=CC(=O)N(C(=O)[C@@H](OC(=O)[C@@H](C)N(C)C(=O)[C@@H]2CCCN2C(=O)[C@H](C(C)C)N(C)C(=O)[C@@H](NC(=O)[C@H](C(C)C)N(Cc2ccccc2)Cc2ccccc2)C(C)C)C(C)C)[C@H]1Cc1ccccc1 (Bn2Val-V[NMeV]P[dNMeA]-X26)    > 100 µM (inactive)
O=[N+]([O-])/C=C\c1c[nH]c2ccc(OCc3ccccc3)cc12    20.6 µM (inactive)

Please give the documented GI50 of COc1ccccc1NC(=O)CC(=O)N1N=C(C)C(/N=N/c2ccc(C(=O)O)cc2)C1=O (stereo not given) > 100 µM (inactive)

Please give the documented GI50 of COC(=O)C#Cc1cccc(OC)c1OC 28.6 µM (inactive)

---

Tested on: K562
METHOD DESCRIPTION: NCI tumour cell line growth inhibition, 48 h
Activity calls are given as the source filed them. Cut-off read from the data, not from the text of the source: active = GI50 up to about 1.1 µM and inactive = higher.
Hello, when you answer, please use one of the following outcomes: 1 = active, 0 = inactive

# example entries with known answers
CCOC(=O)C(NC(=O)CC)(Nc1ccccc1OC)C(F)(F)F (stereo not given)    0
O=C(Cc1ccccc1)NCCCN(CCCCN(CCCNC(=O)Cc1ccccc1)C(=O)OCc1ccccc1)C(=O)OCc1ccccc1    0
COC1C=COC2(C)Oc3c(C)c(O)c4c(O)c(c(C5SCCS5)c(O)c4c3C2=O)NC(=O)C(C)=C/C=C\C(C)C2OC(C)(C)OC(C2C)C(C)C(OC(C)=O)C1C (stereo not given)    0
O=c1[nH]nc(-c2ccccc2)n1/N=C/c1c[nH]c2ccccc12    0
Cc1cc(=O)oc2c1cc(OCC(=O)OCCN1CCCCC1)c1occ(C)c12    0
CCCCOc1ccc(OCCCCCCCCCC[N+](C)(C)C)cc1    0

Assay outcome for COc1cccc(/C=C2\CCCCCC2=O)c1 : what was it? 0

Assay outcome for O=C(O)C1C(C(=O)O)C2C(=O)C=CC1N2Cc1ccccc1 (stereo not given) : what was it? 0

Assay outcome for CC1CN=C(N(Cc2ccccc2)C(=O)Nc2ccc(Cl)c(Cl)c2)S1 (stereo not given) : what was it? 0

Assay outcome for COc1ccc(/C(=N/N=c2[nH]c3ccccc3[nH]2)C(=O)O)cc1 : what was it? 0

Assay outcome for N#Cc1c(-c2ccc(Cl)cc2)cc(-c2ccc(Nc3ccnc4cc(C(F)(F)F)ccc34)cc2)[nH]c1=O : what was it? 0

Assay outcome for Cc1cc(/N=C/c2ccc(F)cc2)n(-c2ccccc2)n1 : what was it? 0

Assay outcome for c1ccc([S+](c2ccccc2)c2ccc(Sc3ccc([S+](c4ccccc4)c4ccccc4)cc3)cc2)cc1 : what was it? 0
